- System Tested: AHR (Mus musculus)
- Sequence (P30561 whole entry P471L/N533S/M589L, form open): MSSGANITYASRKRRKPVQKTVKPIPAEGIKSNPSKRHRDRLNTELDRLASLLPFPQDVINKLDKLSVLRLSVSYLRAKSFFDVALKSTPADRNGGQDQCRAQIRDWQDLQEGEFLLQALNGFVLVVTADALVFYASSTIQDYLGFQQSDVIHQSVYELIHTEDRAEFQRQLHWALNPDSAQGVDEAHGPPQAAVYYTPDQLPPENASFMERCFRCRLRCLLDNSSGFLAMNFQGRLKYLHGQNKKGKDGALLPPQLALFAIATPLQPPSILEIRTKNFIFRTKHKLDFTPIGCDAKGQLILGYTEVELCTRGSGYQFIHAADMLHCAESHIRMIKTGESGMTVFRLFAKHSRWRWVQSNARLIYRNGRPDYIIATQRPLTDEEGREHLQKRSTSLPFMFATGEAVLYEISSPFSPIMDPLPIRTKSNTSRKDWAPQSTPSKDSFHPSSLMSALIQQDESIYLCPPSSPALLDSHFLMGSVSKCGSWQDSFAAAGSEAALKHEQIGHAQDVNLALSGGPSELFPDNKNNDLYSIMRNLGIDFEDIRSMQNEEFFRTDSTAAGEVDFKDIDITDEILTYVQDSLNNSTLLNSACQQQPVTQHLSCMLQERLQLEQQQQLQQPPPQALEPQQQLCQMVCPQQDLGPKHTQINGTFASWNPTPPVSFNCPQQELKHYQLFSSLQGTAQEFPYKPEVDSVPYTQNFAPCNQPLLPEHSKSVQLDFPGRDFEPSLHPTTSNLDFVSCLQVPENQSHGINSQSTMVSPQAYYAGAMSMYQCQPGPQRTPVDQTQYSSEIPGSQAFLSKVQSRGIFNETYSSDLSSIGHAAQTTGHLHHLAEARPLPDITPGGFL
- Protocol Summary: In vitro assay 3: antagonism in mouse cell line (AHR transactivation, firefly luciferase reporter, kynurenic acid prestimulated)
- Type: cell-based
- Condition Summary: mouse Hepa 1c1c7 cells, 200 μM kynurenic acid, 20 hours, read-out: AHR Antagonism Mouse IC50
# thresholds on IC50 define classes: I (below 20 nM), II (20 nM to below 200 nM), III (200 nM or more)

• Cc1cccc2nc(N[C@@H]3CCCCNC3=O)n3nc(-c4cnn(C)c4)nc3c12 [Example 183] = III
• COc1cccc(-c2nc3c4ccccc4nc(N[C@H](C)C(N)=O)n3n2)c1 [Example 92] = I
• C[C@@H](Nc1nc2ccccc2c2nc(-c3cc(Cl)ccc3OC(F)(F)F)nn12)C(=O)NCCN(C)C [Example 775] = III
• Cc1cc(-c2nc3c4ccccc4nc(N[C@@H]4CCNC4=O)n3n2)cs1 [Example 356] = II
• CS(=N)(=O)c1cccc(-c2nc3c4ccccc4nc(N[C@@H]4CCCCNC4=O)n3n2)c1 (single isomer, unassigned) [Example 660] = III
• COc1ccc(-c2nc3c4cccc(C5(C)CC5)c4nc(N[C@@H]4CCCCNC4=O)n3n2)cc1 [Example 399] = II
• COc1ccc(-c2nc3c4ccccc4nc(NC4CCCNC4=O)n3n2)cc1 (centres unmarked) [Example 28] = I
• CCn1cc(-c2nc3c4cccc(OC)c4nc(N[C@@H]4CCCCNC4=O)n3n2)c(C)n1 [Example 753] = II
• O=C1NCC[C@H]1Nc1nc2ccccc2c2nc(-c3ccccc3OC(F)(F)F)nn12 [Example 459] = II
• O=C1NCCCC[C@H]1Nc1nc2c(Cl)cccc2c2nc(-c3ccncc3)nn12 [Example 193] = II
• O=C1NCCCC[C@H]1Nc1nc2ccccc2c2nc(-c3cc(F)ccc3F)nn12 [Example 197] = I
• N#Cc1ccc(-c2nc3c4cccc(Br)c4nc(N[C@@H]4CCCCNC4=O)n3n2)cc1 [Example 558] = I
• COc1cccc(-c2nc3c4ccccc4nc(NC4CNCCNC4=O)n3n2)c1 (single isomer, unassigned) [Example 117] = II
• O=C1NCC[C@H]1Nc1nc2ccccc2c2nc(-c3cc(Cl)ccc3OC(F)(F)F)nn12 [Example 500] = III
• COc1cccc(-c2nc3c4ccccc4nc(N[C@H](CCS(C)(=O)=O)C(N)=O)n3n2)c1 [Example 113] = III
• CCn1cc(-c2nc3c4ccccc4nc(N[C@@H]4CCCCNC4=O)n3n2)cn1 [Example 67] = I
• COc1ccc(-c2nc3c4ccccc4nc(NC4CCCNC4=O)n3n2)cc1 (single isomer, unassigned) [Example 37] = III
• O=C1NCC[C@H]1Nc1nc2ccccc2c2nc(-c3ccncc3F)nn12 [Example 483] = III
• COc1cccc(-c2nc3c4ccccc4nc(N[C@@H](C(N)=O)[C@H](C)OCc4ccccc4)n3n2)c1 [Example 97] = II
• Cc1cc2c(cc1C(F)F)nc(N[C@@H]1CCCCNC1=O)n1nc(-c3cnn(C)c3)nc21 [Example 405] = III
• CC[C@@H](Nc1nc2ccccc2c2nc(-c3cccc(OC)c3)nn12)C(N)=O [Example 88] = I
• O=C1NCCCC[C@H]1Nc1nc2c(C(F)(F)F)cccc2c2nc(-c3cnn(C(F)F)c3)nn12 [Example 736] = I
